- Test system: UWB1.289 + BRCA1
- protocolDetails: MTT cytotoxicity assay, UWB1.289 + BRCA1
- Assay type: cell-based
- conditionsUsed: Tables 3A/4B/4C, BRCA1 + Ve
pIC50: −log10 of the molar value.

{"compound": "C[C@@H]1/C(=C\\c2ccc([N+](=O)[O-])cc2)C(=O)/C(=C/c2ccc([N+](=O)[O-])cc2)CN1C(=O)[C@@H](N)Cc1ccccc1 [RA413R]", "pIC50": "> 7.70"}

====

- System: HEC-1A
- protocolDetails: MTT cytotoxicity assay, HEC-1A
- conditionsUsed: read-out: cytotoxicity IC50 HEC-1A, Tables 3A/4B/4C
pIC50: −log10 of the molar value.
Collected pIC50 values appear next to each entry.
parameter: pIC50

{"compound": "N[C@@H](Cc1ccccc1)C(=O)N1C/C(=C\\c2ccc([N+](=O)[O-])cc2)C(=O)/C(=C/c2ccc([N+](=O)[O-])cc2)C1 [RA183, reference compound]", "observed": 6.42}
{"compound": "CC(C)C[C@H](NC(=O)[C@H](Cc1ccccc1)NC(=O)c1cnccn1)B(O)O [Bortezomib, bortezomib, reference compound]", "observed": 6.82}
{"compound": "C[C@H]1/C(=C\\c2ccc([N+](=O)[O-])cc2)C(=O)/C(=C/c2ccc([N+](=O)[O-])cc2)CN1C(=O)[C@@H](N)Cc1ccccc1", "observed": 6.68}
{"compound": "CC1/C(=C\\c2ccc([N+](=O)[O-])cc2)C(=O)/C(=C/c2ccc([N+](=O)[O-])cc2)CN1C(=O)[C@H](Cc1ccccc1)NC(=O)CCl (stereo partly drawn)", "observed": 6.71}
{"compound": "N[C@@H](Cc1ccccc1)C(=O)N1C/C(=C\\c2ccc(Cl)c(Cl)c2)C(=O)/C(=C/c2ccc(Cl)c(Cl)c2)C1 [RA190, reference compound]", "observed": 6.37}
{"compound": "C[C@@H]1/C(=C\\c2ccc([N+](=O)[O-])cc2)C(=O)/C(=C/c2ccc([N+](=O)[O-])cc2)CN1C(=O)[C@@H](N)Cc1ccccc1 [RA413R]", "observed": 6.57}

====

- Test system: HS578T
- protocolDetails: MTT cytotoxicity assay, HS578T
- conditionsUsed: read-out: cytotoxicity IC50 HS578T; Tables 3A/4B/4C; MTT assay
Collected IC50 values appear next to each entry.
parameter: IC50 (nM)

{"compound": "CC1/C(=C\\c2ccc([N+](=O)[O-])cc2)C(=O)/C(=C/c2ccc([N+](=O)[O-])cc2)CN1C(=O)[C@H](Cc1ccccc1)NC(=O)CCl (stereo partly shown)", "observed": 1.5}
{"compound": "N[C@@H](Cc1ccccc1)C(=O)N1C/C(=C\\c2ccc(Cl)c(Cl)c2)C(=O)/C(=C/c2ccc(Cl)c(Cl)c2)C1 [RA190, reference compound]", "observed": 78}
{"compound": "N[C@@H](Cc1ccccc1)C(=O)N1C/C(=C\\c2ccc([N+](=O)[O-])cc2)C(=O)/C(=C/c2ccc([N+](=O)[O-])cc2)C1 [RA183, reference compound]", "observed": 89}
{"compound": "CC(C)C[C@H](NC(=O)[C@H](Cc1ccccc1)NC(=O)c1cnccn1)B(O)O [Bortezomib, bortezomib, reference compound]", "observed": 13}

====

Collected pIC50 values appear next to each entry.
- System: BR5-Luc
- protocolDetails: MTT cytotoxicity assay, BR5-Luc
- conditionsUsed: read-out: cytotoxicity IC50 BR5-Luc, Tables 3A/4B/4C, BRCA2 − VE
pIC50: −log10 of the molar value.
parameter: pIC50

{"compound": "C[C@H]1/C(=C\\c2ccc([N+](=O)[O-])cc2)C(=O)/C(=C/c2ccc([N+](=O)[O-])cc2)CN1C(=O)[C@@H](N)Cc1ccccc1", "testSystem": "BR5-Luc", "parameter": "pIC50", "observed": 8.24}
{"compound": "N[C@@H](Cc1ccccc1)C(=O)N1C/C(=C\\c2ccc(Cl)c(Cl)c2)C(=O)/C(=C/c2ccc(Cl)c(Cl)c2)C1 [RA190, reference compound]", "testSystem": "BR5-Luc", "parameter": "pIC50", "observed": 7.42}
{"compound": "COc1cccc2c1C(=O)c1c(O)c3c(c(O)c1C2=O)C[C@@](O)(C(=O)CO)C[C@@H]3O[C@H]1C[C@H](N)[C@H](O)[C@H](C)O1 [DOX, Doxorubicin]", "testSystem": "BR5-Luc", "parameter": "pIC50", "observed": 6.63}
{"compound": "O=C(c1cc(Cc2n[nH]c(=O)c3ccccc23)ccc1F)N1CCN(C(=O)C2CC2)CC1 [OLA, olaparib, reference compound]", "testSystem": "BR5-Luc", "parameter": "pIC50", "observed": 6.30}
{"compound": "CC(C)C[C@H](NC(=O)[C@H](Cc1ccccc1)NC(=O)c1cnccn1)B(O)O [Bortezomib, bortezomib, reference compound]", "testSystem": "BR5-Luc", "parameter": "pIC50", "observed": 8.39}
